Test: Cytotoxicity test (MTT), HT-29
Type: cell-based
Conditions: human, HT-29 cells; HT-29, 48 h; text of b533; read-out: cytotoxicity IC50 for HT-29
Procedure: The human colorectal cancer cell line HT-29 and the monocytic blood cancer-derived cell line U937 were cultured in a RPMI 1640 medium containing 10% FBS and 1% penicillin/streptomycin (PS) at 37° C. under a condition of 5% CO2, and when the cells used herein were grown to 80% or more, they were subcultured at a ratio of 1:3. […]
Property: IC50 at 48 h (µM)
Numeric only. Scale: µM

Give the measured IC50 at 48 h for CCCNC(=O)Nc1nc(C)c(O)c(C)c1C [Compound 16-1]
64.6
